# targetOrSystem: Fibrinogen beta chain (Homo sapiens) (UniProt P02675)
# Sequence (P02675 whole entry, looked up): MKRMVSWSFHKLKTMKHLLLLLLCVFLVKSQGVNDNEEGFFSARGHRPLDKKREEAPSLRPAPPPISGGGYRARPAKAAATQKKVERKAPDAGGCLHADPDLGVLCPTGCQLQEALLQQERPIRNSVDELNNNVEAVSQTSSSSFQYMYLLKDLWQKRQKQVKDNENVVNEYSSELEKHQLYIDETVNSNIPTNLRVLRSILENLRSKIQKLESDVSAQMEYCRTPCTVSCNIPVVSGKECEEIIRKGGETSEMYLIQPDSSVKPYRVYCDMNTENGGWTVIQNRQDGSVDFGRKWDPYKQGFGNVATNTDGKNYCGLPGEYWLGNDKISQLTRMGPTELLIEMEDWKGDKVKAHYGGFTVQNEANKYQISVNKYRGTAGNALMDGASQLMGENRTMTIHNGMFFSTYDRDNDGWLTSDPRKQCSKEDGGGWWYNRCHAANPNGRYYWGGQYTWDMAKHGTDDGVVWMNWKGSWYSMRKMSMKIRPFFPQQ
# experimentSummary: small molecules displacing Tn7 from DD(E) complex – biochemical, fluorescence polarization, human fibrin, Tn7 probe, primary screen (AID 720508);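 note: 0% = plate median of compound wells and 100% = 10 µM Aha-Tn7 peptide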
# measurementContext: FP displacement of FITC-Tn7 peptide from fibrin DD(E); at 8.3 µM; 0% = median of compound wells per plate
Out of some 370,000 compounds screened, about 500 (0.14%) were called active.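 Rule for the calls: active = inhibition above the mean of compounds falling within the control limits plus 3 SD of them (cut at about 14% in these data); inactive = the rest.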 The full list was thinned out, with actives kept by preference.
Answer with one of the outcomes given here: 1 (yes) for active, 0 (no) for inactive

Please share the test call associated with O=C(Nc1ccc2c(c1)OCO2)c1sc2cc(Cl)ccc2c1Cl .
0 (no)

Please share the test call associated with CCOC(=O)C=Cc1ccc(C(=O)OCC)[nH]1 .
0 (no)

Please share the test call associated with N#CCCN1CCN(S(=O)(=O)c2ccc(S(=O)(=O)N3CCCC3)cc2)CC1 .
0 (no)

Please share the test call associated with CCOC(=O)C1(S(=O)(=O)c2ccc(Cl)cc2)CCN(Cc2ccccc2)CC1 .
0 (no)

Please share the test call associated with OCC1(Cc2ccccc2C(F)(F)F)CCN(Cc2ccncc2)CC1 .
0 (no)

Please share the test call associated with NC(=O)c1cc(S(=O)(=O)N2CCCC2)ccc1OCc1ccc(F)cc1 .
0 (no)

Please share the test call associated with CSCC[C@H](NC(=O)NCc1cccs1)C(=O)O .
0 (no)

Please share the test call associated with COC(=O)CNc1nc(Cl)nc(N2CCC(C)CC2)n1 .
0 (no)

Please share the test call associated with COc1ccc(C(C(=O)NC2CCCCC2)N(C(=O)Cc2c[nH]c3ccccc23)c2ccccc2)cc1OC (stereo unspecified) .
0 (no)

Please share the test call associated with O=C(/C=C/c1ccccc1[N+](=O)[O-])NCC1CCCO1 (stereo unspecified) .
1 (yes)

Please share the test call associated with Cc1cc(C)c2cc(CN(Cc3cccs3)Cc3nnnn3CC3CCCO3)c(=O)[nH]c2c1 (stereo unspecified) .
0 (no)

Please share the test call associated with O=C(Nc1ccon1)c1sc2ccccc2c1Cl .
1 (yes)

Please share the test call associated with CC1(C)CC(=O)c2sc(N)nc2C1 .
0 (no)

Please share the test call associated with COc1ccccc1-c1sc2ccccc2c1C#CC1(O)CCCCC1 .
0 (no)

Please share the test call associated with Cc1ccc(C)c(NS(=O)(=O)c2c(C)[nH]c(C)c2C(=O)N2CCCCC2)c1 .
0 (no)

Please share the test call associated with Cc1cc(=O)[nH]c2nnnn12 .
0 (no)

Please share the test call associated with O=S(=O)(NCC1CCCO1)c1cnc(Cl)c(Cl)c1 (stereo unspecified) .
0 (no)

Please share the test call associated with Cc1nn(C)cc1N1C(=O)c2cccc3c(N)ccc(c23)C1=O .
1 (yes)

Please share the test call associated with Nc1nc(Br)c2ccccc2c1-c1ccc(F)cc1 .
0 (no)

Please share the test call associated with CCC(=O)N1CCN=C1SCc1ccc(F)cc1 .
0 (no)

Please share the test call associated with COc1cc(C(=O)NN(CCC#N)C2=NS(=O)(=O)c3ccccc32)cc(OC)c1OC .
0 (no)

Please share the test call associated with CC(C)CNC(=O)COC(=O)/C=C/c1ccccc1[N+](=O)[O-] .
0 (no)

Please share the test call associated with Cc1ccccc1CCNC(=O)C1CCC(=O)N(Cc2ccc(Cl)cc2)C1 (stereo unspecified) .
0 (no)

Please share the test call associated with COc1ccc(Br)c2c1C(=O)CC2 .
0 (no)

Please share the test call associated with CCN(CC)C(=O)CSC(Nc1cccc(F)c1)=C(C#N)C#N .
0 (no)

Please share the test call associated with CCc1nc2c(OCc3ccc(F)c(F)c3)cccn2c1N(C)C(=O)c1ccco1 .
0 (no)

Please share the test call associated with O=C(CSc1nncn1-c1cccnc1)N1CCOCC1 .
0 (no)

Please share the test call associated with CCC(C)N1CC(=O)N2Cc3[nH]c4ccccc4c3C[C@H]2C1=O (stereo partly specified) .
0 (no)

Please share the test call associated with CC1CC1C(=O)OCC(=O)c1c(N)n(C)c(=O)n(C)c1=O (stereo unspecified) .
0 (no)

Please share the test call associated with COc1ccc(S(=O)(=O)N2CCN(C(C)C(=O)Nc3ccc(C(C)C)cc3)CC2)cc1 (stereo unspecified) .
0 (no)

Please share the test call associated with CN1CCc2ccccc2C1Cc1ccccc1NC(=O)c1sc2ccccc2c1Cl (stereo unspecified) .
0 (no)

Please share the test call associated with COC(=O)[C@]12CCCCC=C1N(Cc1ccc(Cl)cc1Cl)C(=O)[C@H](CC(=O)NCc1cccc3ccccc13)C2 .
0 (no)

Please share the test call associated with CC(=O)Nc1ccc(CN2CCN(Cc3ccc(F)c(F)c3)C(CCO)C2)cc1 (stereo unspecified) .
0 (no)

Please share the test call associated with COc1cc2nc(CN(C)Cc3ccc(F)cc3)[nH]c(=O)c2cc1OC .
0 (no)

Please share the test call associated with CCOc1ccc(NC(=O)CCS(=O)(=O)c2ccc3c(c2)CCCN3C(=O)CC)cc1 .
0 (no)

Please share the test call associated with CN1C(=O)c2cccc3c(N)ccc(c23)C1=O .
1 (yes)

Please share the test call associated with COc1ccc(-n2c(SCC(=O)Nc3sc4c(c3C#N)CCCC4)nnc2-c2ccc(O)cc2)cc1 .
0 (no)

Please share the test call associated with Clc1ccc(CN2CCCCCC2)cc1Cl .
0 (no)

Please share the test call associated with COCCCNC(=O)Cc1ccc(-n2c(C)nc3cccnc32)cc1 .
0 (no)

Please share the test call associated with CC(C)(C)c1cc(CN2CCN(CCC#N)CC2)cc(C(C)(C)C)c1O .
1 (yes)

Please share the test call associated with COc1cc2c(cc1OC)CC1(CCCCC1)N=C2 .
0 (no)

Please share the test call associated with O=C(OCC(=O)N1CCN(C(=O)c2ccco2)CC1)c1ccccc1Cc1ccccc1 .
0 (no)

Please share the test call associated with C[N+]1(CCNC(=O)/C=N/O)CCCCC1 .
0 (no)

Please share the test call associated with Brc1ccc(-c2nn[nH]n2)cc1 .
0 (no)

Please share the test call associated with O=C(COC(=O)CNS(=O)(=O)c1ccccc1)NC12CC3CC(CC(C3)C1)C2 .
0 (no)

Please share the test call associated with Cc1cc(C)c2nc3nc(C)cc(C)c3c(N)c2c1 .
0 (no)
